Target: hITK enzyme (FLAG-tagged full-length hITK) (Homo sapiens, UniProt Q08881)
Construct: strongly expressing FLAG-tagged full-length hITK in Sf9 cells; FLAG; made in house; host or cells: Sf9 insect cells (ITK); Escherichia coli (GST-SLP76 substrate)
Assay: ITK inhibitory activity (HTRF kinase assay, biotinylated GST-SLP76 substrate)
Type: biochemical
Conditions: IC50 calculated from the 2 test compound concentrations sandwiching 50% ITK inhibitory rate
pIC50: −log10 of the molar value.
observable: pIC50

[
  {
    "compound": "CO[C@H]1CC[C@@H](C(=O)N(CCO)c2ccc3cc(-c4n[nH]c5c4CCC(C)(C)C5)[nH]c3c2)CC1 [Example 240]",
    "pIC50": 8.52
  }
]

A: CN(C(=O)CN1CCC[C@@H](O)C1)c1ccc2cc(-c3n[nH]c4c3CCC(C)(C)C4)[nH]c2c1 [Example 110]
B: CC1CCN(c2ccc3cc(-c4n[nH]c5c4CCC(C)(C)C5)[nH]c3c2)C1=O (centres unmarked) [Example 229]
C: CC(C)CC(=O)N(CCO)c1ccc2cc(-c3n[nH]c4c3CCC(C)(C)C4)[nH]c2c1 [Example 247]
D: CC(C)C(C(=O)N(C)c1ccc2cc(-c3n[nH]c4c3CCC(C)(C)C4)[nH]c2c1)N1CCOCC1 (centres unmarked) [Example 173]
Please order the records by their reported pIC50, lowest number first. Give the order by naming the labels one after another as requested. B, D, A, C

I: CC1(C)CCc2c(-c3cc4ccc(N5CCC(CO)C5=O)cc4[nH]3)n[nH]c2C1 (centres unmarked) [Example 228]
II: CC(=O)N(C)c1ccc2cc(-c3n[nH]c4c3CCC(C)(C)C4)[nH]c2c1 [Example 1]
Input pair: I , II . Output: entry with lower pIC50. Please indicate the selected item by its label. I
(I: 7.40, II: 8.15)

====

Target: hITK enzyme (FLAG-tagged full-length hITK) (Homo sapiens)
Construct: strongly expressing FLAG-tagged full-length hITK in Sf9 cells; FLAG; made in house; host or cells: Sf9 insect cells (ITK); Escherichia coli (GST-SLP76 substrate)
Sequence (Q08881 1-620): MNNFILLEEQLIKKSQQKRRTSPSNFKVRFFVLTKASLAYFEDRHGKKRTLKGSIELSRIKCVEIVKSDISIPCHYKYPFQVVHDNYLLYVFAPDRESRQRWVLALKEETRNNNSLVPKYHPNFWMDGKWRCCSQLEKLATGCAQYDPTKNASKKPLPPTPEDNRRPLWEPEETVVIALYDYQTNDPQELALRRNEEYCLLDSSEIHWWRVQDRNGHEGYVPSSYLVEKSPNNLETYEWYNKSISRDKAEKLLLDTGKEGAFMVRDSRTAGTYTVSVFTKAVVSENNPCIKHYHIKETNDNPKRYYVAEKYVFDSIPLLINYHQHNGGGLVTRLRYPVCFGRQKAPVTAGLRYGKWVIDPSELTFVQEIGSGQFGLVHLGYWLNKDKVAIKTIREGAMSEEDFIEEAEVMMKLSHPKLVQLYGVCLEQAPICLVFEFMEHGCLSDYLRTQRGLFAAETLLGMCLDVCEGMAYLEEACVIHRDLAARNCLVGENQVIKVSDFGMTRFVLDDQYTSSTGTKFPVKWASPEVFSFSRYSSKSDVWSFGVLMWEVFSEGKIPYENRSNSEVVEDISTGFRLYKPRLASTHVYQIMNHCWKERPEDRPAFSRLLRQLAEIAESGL
Assay: ITK inhibitory activity (HTRF kinase assay, biotinylated GST-SLP76 substrate)
Type: biochemical
Conditions: IC50 calculated from the 2 test compound concentrations sandwiching 50% ITK inhibitory rate
Experimental: (1) Preparation of hITK Enzyme hITK enzyme was prepared by strongly expressing FLAG-tagged full-length hITK in Sf9 cells, and purifying same by anti-FLAG antibody column. (2) Preparation of biotinylated GST-SLP76 […] The Ratio (fluorescence intensity at 665 nm/fluorescence intensity at 620 nm×10000) of each test compound was calculated from the measured fluorescence intensity. […]
pIC50: −log10 of the molar value.
observable: pIC50

Before answering, review these 2 worked examples.
[
  {
    "compound": "COCC(C(C)C)N(C)C(=O)c1ccc2cc(-c3n[nH]c4c3CCC(C)(C)C4)[nH]c2c1 (stereo not shown)",
    "pIC50": 7.07
  },
  {
    "compound": "C[C@@H](C(=O)N(CCO)c1ccc2cc(-c3n[nH]c4c3CCC(C)(C)C4)[nH]c2c1)N1CCOCC1",
    "pIC50": 8.52
  }
]

P: Cc1cc(C(=O)N(C)c2ccc3cc(-c4n[nH]c5c4CCC(C)(C)C5)[nH]c3c2)no1
Q: CN(C)CCN(C(=O)CC1CCOCC1)c1ccc2cc(-c3n[nH]c4c3CCC(C)(C)C4)[nH]c2c1
Between these two entries, P and Q , state which has the higher pIC50. Please reply using the label of the selected record. Q

====

Molecular target: hITK enzyme (FLAG-tagged full-length hITK) (Homo sapiens)
Construct: strongly expressing FLAG-tagged full-length hITK in Sf9 cells; FLAG; made in house; host or cells: Sf9 insect cells (ITK); Escherichia coli (GST-SLP76 substrate)
Assay: ITK inhibitory activity (HTRF kinase assay, biotinylated GST-SLP76 substrate)
Format: biochemical
Conditions: IC50 calculated from the 2 test compound concentrations sandwiching 50% ITK inhibitory rate
observable: IC50 (nM)

[
  {
    "compound": "COC1CCc2[nH]nc(-c3cc4ccc(N(C)C(=O)c5ccccc5)cc4[nH]3)c2C1 (stereo not shown)",
    "u": "nM",
    "IC50": 204
  },
  {
    "compound": "CN(C(=O)CN1CC(C)(C)CC1=O)c1ccc2cc(-c3n[nH]c4c3CCC(C)(C)C4)[nH]c2c1",
    "u": "nM",
    "IC50": 1
  },
  {
    "compound": "CN(C)C(=O)c1ccc2[nH]c(-c3n[nH]c4c3CCC(C)(C)C4)cc2c1",
    "u": "nM",
    "IC50": 58
  },
  {
    "compound": "COCCN(C(=O)CN1C(=O)COC[C@@H]1C)c1ccc2cc(-c3n[nH]c4c3CCC(C)(C)C4)[nH]c2c1",
    "u": "nM",
    "IC50": 3
  },
  {
    "compound": "CN(C(=O)C(O)CO)c1ccc2cc(-c3n[nH]c4c3CCC(C)(C)C4)[nH]c2c1 (stereo not shown)",
    "u": "nM",
    "IC50": 6
  }
]

1: CC1COCC(=O)N1C(C)C(=O)N(C)c1ccc2cc(-c3n[nH]c4c3CCC(C)(C)C4)[nH]c2c1 (stereo not shown) [Example 153]
2: C[C@@H](C(=O)N(C)c1ccc2cc(-c3n[nH]c4c3CCC(C)(C)C4)[nH]c2c1)N1CCOCC1 [Example 4]
3: COCCN(c1ccc2cc(-c3n[nH]c4c3CCC(C)(C)C4)[nH]c2c1)C(=O)[C@H]1CC[C@@H](O)CC1
4: COC(=O)CNC(=O)c1ccc2[nH]c(-c3n[nH]c4c3CCC(C)(C)C4)cc2c1
5: CC(N(C)C(=O)c1ccc2cc(-c3n[nH]c4c3CCC(C)(C)C4)[nH]c2c1)C(C)(C)C (stereo not shown)
rank_up(items): orders items by reported IC50 in ascending numerical order. To answer, arrange all of the labels according to the requested order. 2, 3, 1, 4, 5
(2: 2 nM, 3: 3 nM, 1: 5 nM, 4: 13 nM, 5: 45 nM)

1: CC(N)C(=O)N(C)c1ccc2cc(-c3n[nH]c4c3CCC(C)(C)C4)[nH]c2c1 (stereo not shown)
2: COC(C)C(=O)N(C)c1ccc2cc(-c3n[nH]c4c3CCC(C)(C)C4)[nH]c2c1 (stereo not shown)
Recorded IC50 values differ for 1 and 2 ; which one is higher? In your reply, give the label of the chosen option. 1
(1: 6 nM, 2: 4 nM)

I: COCCN(C(=O)CN1CCCCCC1=O)c1ccc2cc(-c3n[nH]c4c3CCC(C)(C)C4)[nH]c2c1
II: CN(C(=O)C(=O)c1ccccc1)c1ccc2cc(-c3n[nH]c4c3CCC(C)(C)C4)[nH]c2c1
III: COCC(=O)N(C)c1ccc2cc(-c3n[nH]c4c3CC(O)CC4)[nH]c2c1 (stereo not shown)
IV: CO[C@H]1CN(C(=O)c2ccc3[nH]c(-c4n[nH]c5c4CCC(C)(C)C5)cc3c2)C[C@H]1OC
Order these by IC50, descending, and give the full ranking. Output the labels ranked as instructed. III, IV, II, I

1: COC[C@@H]1CCC(=O)N1CC(=O)N(C)c1ccc2cc(-c3n[nH]c4c3CCC(C)(C)C4)[nH]c2c1
2: CN(C(=O)CO)c1ccc2cc(-c3n[nH]c4c3CCC(C)(C)C4)[nH]c2c1
3: CC1(C)CCc2c(-c3cc4cc(C(=O)NCc5ccoc5)ccc4[nH]3)n[nH]c2C1
4: CCN(C(=O)CN1CCOCC1=O)c1ccc2cc(-c3n[nH]c4c3CCC(C)(C)C4)[nH]c2c1
Arrange the 4 compounds by rising IC50, starting with the smallest. To answer, write out the labels according to the requested order. 4, 1, 2, 3
(4: 1 nM, 1: 2 nM, 2: 5 nM, 3: 45 nM)

I: CCN(C(=O)CO)c1ccc2cc(-c3n[nH]c4c3CCC(C)(C)C4)[nH]c2c1
II: CN(C(=O)CN1C(=O)CC[C@H]1CO)c1ccc2cc(-c3n[nH]c4c3CCC(C)(C)C4)[nH]c2c1
Hey, which is lower on measured IC50, I or II ? Answer by stating the label of the chosen item. II

I: CCC(=O)N(CCOC)c1ccc2cc(-c3n[nH]c4c3CCC(C)(C)C4)[nH]c2c1
II: COCCN(C(=O)CN1C(=O)COC[C@H]1C)c1ccc2cc(-c3n[nH]c4c3CCC(C)(C)C4)[nH]c2c1
When their IC50 values are compared, which is larger, I or II ? Please identify the chosen entry by its label. I
(I: 5 nM, II: 3 nM)
